B1: SARS-CoV-2 ORF10 N5 peptide [SARS-CoV-2] / CUL2^ZYG11B (residues 490–728) [human] (parent)
chain 1: GYINV
chain 2: ELFIVRQLLQIVKQKTNQNSVDTTLKFTLSALWNLTDESPTTCRHFIENQGLELFMRVLESFPTESSIQQKVLGLLNNIAEVQELHSELMWKDFIDHISSLLHSVEVEVSYFAAGIIAHLISRGEQAWTLSRSQRNSLLDDLHSAILKWPTPECEMVAYRSFNPFFPLLGCFTTPGVQLWAVWAMQHVCSKNPSRYCSMLIEEGGLQHLYNIKDHEHTDPHVQQIAVAILDSLEKHIVR

Variants of: B1
PROCEDURE_DETAILS: ITC
CONDITION_INFO: with CUL2^ZYG11B (residues 490–728) [human]
PROPERTY_NAME: pKd
Recall that pKd is obtained by taking minus log10 of the concentration measured in molar.

# lookup: pKd of chain 1 G1S
4.88

These entries and their values trace back to paper PMC11413682.
